tested on: NOMO1; assay: AUC of viability dose-response curve (% viability x log10 dose units); higher = less sensitive; details: HPLM + 10% dialyzed FBS; 48 h
Give measured AUC of viability dose-response curve for each item. Keep answers brief.
Form rule: numeric answer, no unit written next to it.

q: Provide AUC of viability dose-response curve, recorded with NOMO1, of `COc1cc([C@@H]2c3cc4c(cc3[C@@H](O[C@@H]3O[C@@H]5CO[C@@H](C)O[C@H]5[C@H](O)[C@H]3O)[C@H]3COC(=O)[C@H]23)OCO4)cc(OC)c1O`
a: 345

q: Provide AUC of viability dose-response curve, recorded with NOMO1, of COc1ccccc1OCC(O)CN1CCN(CC(=O)Nc2c(C)cccc2C)CC1 (centres undefined)
a: 460

q: Provide AUC of viability dose-response curve, recorded with NOMO1, of CCN(CCO)CCCC(C)Nc1ccnc2cc(Cl)ccc12 (centres undefined)
a: 417

q: Provide AUC of viability dose-response curve, recorded with NOMO1, of `CN(C)Cc1cccc(N/C(=C2\C(=O)Nc3cc(C(=O)N(C)C)ccc32)c2ccccc2)c1`
a: 418

q: Provide AUC of viability dose-response curve, recorded with NOMO1, of `CCNC(=O)c1noc(-c2cc(C(C)C)c(O)cc2O)c1-c1ccc(CN2CCOCC2)cc1`
a: 253

q: Provide AUC of viability dose-response curve, recorded with NOMO1, of `CCCCC(F)(F)[C@@]1(O)CC[C@H]2[C@@H](CC(=O)[C@@H]2CCCCCCC(=O)O)O1`
a: 446

q: Provide AUC of viability dose-response curve, recorded with NOMO1, of `CNC(=O)c1cc(COc2nnc(Nc3ccc(Cl)cc3)c3ccoc23)ccn1`
a: 449

q: Provide AUC of viability dose-response curve, recorded with NOMO1, of `Cc1cccc(Nc2nc(N[C@@H]3CCCC[C@@H]3N)ncc2C(N)=O)c1`
a: 424

q: Provide AUC of viability dose-response curve, recorded with NOMO1, of `CN1CCC(=C2c3ccccc3CCc3sccc32)CC1`
a: 460

----------
tested on: P12-Ichikawa; experiment: AUC of viability dose-response curve (% viability x log10 dose units); higher = less sensitive; conditions: HPLM + 10% dialyzed FBS; 48 h
Give measured AUC of viability dose-response curve for each item. Keep answers brief.
Form rule: numeric answer, no unit written next to it.

q: For the molecule `COCCNCCCn1c(C(=O)CF)c(-c2ccc(C)cc2)c2c(N)ncnc21` , give its measured AUC of viability dose-response curve value.
a: 456

q: For the molecule `O=C1CCc2cc(OCCCCc3nnnn3C3CCCCC3)ccc2N1` , give its measured AUC of viability dose-response curve value.
a: 452

q: For the molecule `CC1(C)CCC(=C(\C1)C2=CC=C(Cl)C=C2)/CN3CCN(CC3)C4=CC(=C(C=C4)C(=O)N[S+]([O-])(=O)C5=CC=C(NCC6CCOCC6)C(=C5)[N+]([O-])=O)OC7=CN=C8[NH]C=CC8=C7` , give its measured AUC of viability dose-response curve value.
a: 436

q: For the molecule `CCOC\1=C(/C(=O)NC2=CC=C(OC3=C(Cl)C(=NC=C3)N)C(=C2)F)C(=O)N(\C=C1)C4=CC=C(F)C=C4` , give its measured AUC of viability dose-response curve value.
a: 444

q: For the molecule `O=C(O)c1nn(Cc2ccc(Cl)cc2Cl)c2ccccc12` , give its measured AUC of viability dose-response curve value.
a: 423

q: For the molecule COc1ccc(CC2SC(=O)NC2=O)cc1C(=O)NCc1ccc(C(F)(F)F)cc1 (configuration not stated) , give its measured AUC of viability dose-response curve value.
a: 430

q: For the molecule `O=C(Nc1ccncc1)C(=O)c1cn(Cc2ccc(Cl)cc2)c2ccccc12` , give its measured AUC of viability dose-response curve value.
a: 281

q: For the molecule `CCNC(=O)c1noc(-c2cc(C(C)C)c(O)cc2O)c1-c1ccc(CN2CCOCC2)cc1` , give its measured AUC of viability dose-response curve value.
a: 333

q: For the molecule `O=C1N\N=C(\C[C@@H]2CCN(C2)C(=O)C3CC3)N1C4=CC=C(C=C4)C5=CC=C6OC=CC6=C5` , give its measured AUC of viability dose-response curve value.
a: 400

q: For the molecule `CC(C)N(CCCNC(=O)Nc1ccc(C(C)(C)C)cc1)C[C@H]1O[C@@H](n2cc(Br)c3c(N)ncnc32)[C@H](O)[C@@H]1O` , give its measured AUC of viability dose-response curve value.
a: 409

q: For the molecule `c1cc(N[C@@H]2CCNC2)nc(-c2cnc3ccc(-c4cn[nH]c4)cn23)c1` , give its measured AUC of viability dose-response curve value.
a: 471

q: For the molecule O=P1(NCCCl)OCCCN1CCCl (configuration not stated) , give its measured AUC of viability dose-response curve value.
a: 424

q: For the molecule `CNC(=O)c1cc(Oc2ccc(NC(=O)Nc3ccc(Cl)c(C(F)(F)F)c3)c(F)c2)ccn1` , give its measured AUC of viability dose-response curve value.
a: 422

q: For the molecule `CNCCN(C)Cc1c[nH]nc1-c1ccc(O[C@H]2C[C@H](OCCC3CCOCC3)C2)cc1` , give its measured AUC of viability dose-response curve value.
a: 457

q: For the molecule CC(=O)NC(C)c1ccc(Oc2ccc(OC(C)C)cc2)cc1 (configuration not stated) , give its measured AUC of viability dose-response curve value.
a: 454

q: For the molecule `C=CC[N+]1([C@H]2C[C@H]3[C@@H]4CC[C@H]5C[C@H](O)[C@@H](N6CCOCC6)C[C@]5(C)[C@H]4CC[C@]3(C)[C@H]2OC(C)=O)CCCC1` , give its measured AUC of viability dose-response curve value.
a: 457

q: For the molecule `NC(=O)[C@@H](CCC(F)(F)F)N(Cc1ccc(-c2ncon2)cc1F)[S+](=O)([O-])c1ccc(Cl)cc1` , give its measured AUC of viability dose-response curve value.
a: 430

Cited source: the supplement of paper PMC11451515
